test system: ALOMY; test: Herbicidal post-emergence action 1a (greenhouse pots, visual rating); assay type: in vivo, Alopecurus myosuroides; settings: Dosage 80 g/ha; rated visually about 3 weeks after treatment; 100% = plants have died, 0% = like control plants
A collection of compounds and their measured Post-emergence action against ALOMY in %
Report the figure in % without appending any unit label.

| Compound | Post-emergence action against ALOMY in % [%] |
| --- | --- |
| COC(=O)[C@@H](C)Oc1nn(-c2nccnc2Cl)c(-c2ccc(F)nc2)c1Br [Example I-72] | 90 |

Task: What does the data say about its Post-emergence action against ALOMY in %? Entry: COC(=O)C(C)Oc1nn(-c2cnccn2)c(-c2cncc(F)c2)c1Br (racemic) [Example I-08]
Output: 100

Task: Quick check: Post-emergence action against ALOMY in % of CC(Oc1nn(-c2cnccn2)c(-c2ccc(F)nc2)c1C1CC1)C(=O)O (centres unmarked) [Example I-86] ?
Output: 90

Task: Entry COC(=O)[C@@H](C)Oc1nn(-c2cnccn2)c(-c2cncc(F)c2)c1C#N [Example I-40] has what Post-emergence action against ALOMY in %?
Output: 80

Task: What does the data say about its Post-emergence action against ALOMY in %? Entry: C[C@@H](Oc1nn(-c2cnccn2)c(-c2cccc(F)c2)c1Br)C(=O)O [Example I-48]
Output: 90

Task: State the recorded Post-emergence action against ALOMY in % for this entry: CCOC(=O)[C@@H](C)Oc1nn(-c2cnccn2)c(-c2ccc(F)nc2)c1C1CC1 [Example I-88]
Output: 80

Task: Recorded Post-emergence action against ALOMY in % of COC(=O)C(C)Oc1nn(-c2cnccn2)c(-c2ccc(F)nc2)c1Br (racemic) [Example I-12] , please.
Output: 90

Task: Would you kindly share the measured Post-emergence action against ALOMY in % for COC(=O)COc1nn(-c2cnccn2)c(-c2ccnc(F)c2)c1Br [Example I-09] ?
Output: 80

* * *

System: MATIN
Test: Herbicidal pre-emergence action 2b (doubly sown, 1280 g/ha)
Format: in vivo, Matricaria inodora
Conditions: doubly sown pots, dosage 1280 g/ha, visual scoring after about 3 weeks
Source text: [table] b) Seeds of mono- and dicotyledonous weed plants are placed in plastic pots in sandy loam soil (doubly sown with one species each of mono- or dicotyledonous weed plants per pot) and covered with soil. […] After about 3 weeks, the effect of the preparations is scored visually in comparison with untreated controls as percentages. […]
Pre-emergence action at 1280 g/ha against MATIN in % for assorted compounds
Supply the numeric figure in %, leaving out any unit text.

Known results for compounds:
| Compound | Experimental Target | Value Unit | Readout Number |
| --- | --- | --- | --- |
| COC(=O)COc1nn(-c2cnccn2)c(-c2ccc(F)nc2)c1Br [Example I-11] | MATIN | % | 90 |
| COC(=O)[C@@H](C)Oc1nn(-c2cnccn2)c(-c2cncc(F)c2)c1Br [Example I-39] | MATIN | % | 100 |
| COC(=O)[C@@H](C)Oc1nn(-c2cnccn2)c(-c2ccc(F)nc2)c1Cl [Example I-36] | MATIN | % | 90 |
| COC(=O)[C@H](C)Oc1nn(-c2cnccn2)c(-c2cccc(F)c2)c1Br [Example I-21] | MATIN | % | 100 |
| N#CCOC(=O)COc1nn(-c2cnccn2)c(-c2ccc(F)nc2)c1Br [Example I-65] | MATIN | % | 100 |

Task: Query (compound): COC(=O)[C@@H](C)Oc1nn(-c2cnccn2)c(-c2cncnc2)c1Br [Example I-30] ; field requested: Pre-emergence action at 1280 g/ha against MATIN in %
Output: 90

Task: What measured Pre-emergence action at 1280 g/ha against MATIN in % goes with CCOC(=O)COc1nn(-c2cnccn2)c(-c2cccc(F)c2)c1Br [Example I-02] ?
Output: 100

Task: Could you tell me which Pre-emergence action at 1280 g/ha against MATIN in % is on file for COC(=O)COc1nn(-c2cnccn2)c(-c2ccnc(F)c2)c1Br [Example I-09] ?
Output: 100

Task: I have this compound here, CCOC(=O)COc1nn(-c2cnccn2)c(-c2ccc(F)nc2)c1Cl [Example I-53] , and I need its recorded Pre-emergence action at 1280 g/ha against MATIN in %.
Output: 100
